EC50 listing for selected compounds.
Target: CXCR3 (Homo sapiens, UniProt P49682)
Construct: host or cells: CHO-K1 (cAMP Hunter CHOK1 CXCR3 Gi cell line)
Sequence (P49682 whole entry): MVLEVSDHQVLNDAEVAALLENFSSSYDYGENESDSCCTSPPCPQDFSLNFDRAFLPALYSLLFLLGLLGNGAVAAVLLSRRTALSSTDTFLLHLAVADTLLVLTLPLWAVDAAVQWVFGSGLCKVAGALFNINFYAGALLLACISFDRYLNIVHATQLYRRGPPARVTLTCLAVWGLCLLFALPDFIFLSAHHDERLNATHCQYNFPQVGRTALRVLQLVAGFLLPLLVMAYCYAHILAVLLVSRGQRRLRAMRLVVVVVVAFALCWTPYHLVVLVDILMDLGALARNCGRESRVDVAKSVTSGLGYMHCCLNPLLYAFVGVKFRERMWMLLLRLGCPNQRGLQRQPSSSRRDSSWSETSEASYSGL
Experiment: CXCR3 cAMP agonist assay (cAMP Hunter CHOK1 CXCR3 Gi cell line, forskolin-stimulated, HitHunter cAMP detection)
Format: cell-based
Conditions: cAMP Hunter CHOK1 CXCR3 Gi cells, 20 μM forskolin, 30 minutes; read-out: Activity (CXCR3 cAMP agonist assay compound EC50)
Method: The cAMP Hunter™ CHOK1 CXCR3 Gi cell line was purchased from DiscoveRx. Cells were seeded into a 96-well white assay plate at 50,000 cells/well/94 μl assay buffer (Hank's Buffered Saline Solution, 10 mM HEPES, 0.1% fatty acid-free BSA, pH 7.4) and immediately assayed in suspension. […] Direct detection of cAMP was carried out using the DiscoveRx HitHunter cAMP kit according to manufacturer's instructions, and luminescence was read using a SpectraMax M5 plate reader.
REPORTED ENDPOINT: EC50

>>> result("CC(=O)N1CCN(CC[C@H](NC(=O)[C@@H]2Cc3ccccc3CN2C(=O)CCC(=O)c2ccccc2)C(=O)Nc2ccc(Cl)c(C)c2)CC1 [Compound 19-1]")
"250 to 500 nM"
>>> result("Cc1cc(NC(=O)[C@@H](NC(=O)[C@@H]2Cc3ccccc3CN2C(=O)CCC(=O)c2ccccc2)C2CCN(C(C)C)CC2)ccc1Cl [Compound 8-2]")
"< 50 nM"
>>> result("NCC[C@H](NC(=O)[C@@H]1Cc2ccccc2CN1C(=O)CCC(=O)N1CCCC2(CCC2)C1)C(=O)Nc1ccc2c(c1)CCC2 [Compound 10-8]")
"< 50 nM"
>>> result("Cc1cc(NC(=O)C2(NC(=O)[C@@H]3Cc4ccccc4CN3C(=O)CCC(=O)c3ccccc3)CCN(C)CC2)ccc1Cl [Compound 6-4]")
"50 to 250 nM"
>>> result("Cc1cc(NC(=O)[C@H](CCN)NC(=O)[C@@H]2Cc3ccccc3CN2C(=O)CCC(=O)N2CCC3(CCC3)CC2)ccc1Cl [Compound 12-59]")
"< 50 nM"
>>> result("Cc1cc(NC(=O)[C@H](CCN)NC(=O)[C@@H]2Cc3ccccc3CN2C(=O)CCC(=O)N2CCC[C@H]2C)ccc1Cl [Compound 12-46]")
"< 50 nM"
>>> result("CC1(C)CCCN(C(=O)CCC(=O)N2Cc3ccccc3C[C@H]2C(=O)N[C@@H](CCN)C(=O)Nc2ccc(Cl)c(Cl)c2F)C1 [Compound 15-6]")
"< 50 nM"
>>> result("Cc1cc(NC(=O)[C@H](CCN)NC(=O)[C@@H]2Cc3ccccc3CN2C(=O)CCC(=O)N2CCC[C@H]2c2ccccc2)ccc1Cl [Compound 12-147]")
"< 50 nM"
>>> result("Cc1cc(NC(=O)[C@@](C)(CCCCN)NC(=O)[C@@H]2Cc3ccccc3CN2C(=O)CCC(=O)c2ccccc2)ccc1Cl [Compound 4-9]")
"50 to 250 nM"
>>> result("NCC[C@H](NC(=O)[C@@H]1Cc2ccccc2CN1C(=O)CCC(=O)c1ccccc1)C(=O)Nc1cc(Cl)c(F)c(Cl)c1 [Compound 27-2]")
"250 to 500 nM"
>>> result("Cc1cccc(NC(=O)[C@H](CCCCN)NC(=O)[C@@H]2Cc3ccccc3CN2C(=O)CCC(=O)c2ccccc2)c1 [Compound 1-10]")
"50 to 250 nM"
>>> result("NCCCC[C@H](NC(=O)[C@@H]1Cc2ccccc2CN1C(=O)CCC(=O)c1ccccc1)C(=O)Nc1ccc(F)c(C(F)(F)F)c1 [Compound 1-26]")
"< 50 nM"
>>> result("Cc1cc(NC(=O)[C@H](CCN)NC(=O)[C@@H]2Cc3ccccc3CN2C(=O)CCC(=O)N2CCN(C(C)(C)C)CC2)ccc1Cl [Compound 12-102]")
"50 to 250 nM"
